pIC50: −log10 of the molar value.
Field pIC50: reported value for Tyrosine-protein phosphatase non-receptor type 2 (Homo sapiens, UniProt P17706); entries drawn from several documents.

[ask] Print Tyrosine-protein phosphatase non-receptor type 2 (Homo sapiens, UniProt P17706) pIC50 for "CNC(=O)n1nc(-c2ccc(O)c(N3CC(=O)NS3(=O)=O)c2F)cc1C1CC1" .
[reply] ≥ 6.00

[ask] Print Tyrosine-protein phosphatase non-receptor type 2 (Homo sapiens, UniProt P17706) pIC50 for NC(c1cc(OCCCC(F)(F)F)c2sc(C(F)(F)P(=O)(O)O)c(Br)c2c1)C(F)(F)F (single isomer, unassigned) .
[reply] 5.23

[ask] Print Tyrosine-protein phosphatase non-receptor type 2 (Homo sapiens, UniProt P17706) pIC50 for "Cn1c(=O)c(NCCOC2CCCC2)cc2cc(N3CC(=O)NS3(=O)=O)c(O)cc21" .
[reply] 5.00 to 6.00

[ask] Print Tyrosine-protein phosphatase non-receptor type 2 (Homo sapiens, UniProt P17706) pIC50 for "COc1ccc(-n2cnc(-c3ccc(O)c(N4CC(=O)NS4(=O)=O)c3F)c2)cc1" .
[reply] ≥ 6.00
